system: 699152-130-R-J1-PDC complex spheroid growth; test: Anticancer human tumor 699152-130-R-J1-PDC patient-derived pancreatic carcinoma cell line growth inhibition [AhR]; settings: second compound 1 µM; first compound 0.0316 µM; stronger effect = lower value
Entries and their viability, T/C

{"compound": "CC1(C)CCC(CN2CCN(c3ccc(C(=O)NS(=O)(=O)c4ccc(NCC5CCOCC5)c([N+](=O)[O-])c4)c(Oc4cnc5[nH]ccc5c4)c3)CC2)=C(c2ccc(Cl)cc2)C1 + CC(CO)NC(=O)c1cc(-c2ccc(Cl)cc2)nn(-c2cnn(C)c2)c1=O", "viability, T/C [%]": 96.2}
{"compound": "NS(=O)(=O)OCC1CC(n2ccc3c(NC4CCc5ccccc54)ncnc32)CC1O (stereo not drawn) + Cc1cncc(-c2nc(NCCc3c[nH]c4ccccc34)c3ncn(C(C)C)c3n2)c1", "viability, T/C [%]": 131}
{"compound": "CC1COCCN1c1cc(-c2ccnn2C)c2ccnc(-c3ccn[nH]3)c2n1 (stereo not drawn) + CC(CO)NC(=O)c1cc(-c2ccc(Cl)cc2)nn(-c2cnn(C)c2)c1=O", "viability, T/C [%]": 105}

* * *

Tested on: 699152-130-R-J1-PDC complex spheroid growth
Assay: Anticancer human tumor 699152-130-R-J1-PDC cell line growth inhibition [AhR]; active = viability on the fitted dose curve at most 10% of control; inactive = the rest;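 also: compound exposure lasted 7 days after spheroids had grown for 3 days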
Settings: second compound 3.16 µM; first compound 0.03 µM
Text: Multicellular complex tumor spheroid response to aryl hydrocarbon receptor antagonists in combination with a variety of drugs and investigational agents in selected tumor cell lines […] Compounds. […] If the clinical Cmax for an agent had not been determined, the highest concentration tested was 10 microM (Table 1). […]
Possible outcomes: class 1 (active), class 0 (inactive)

{"compound": "CC(C)CC(NC(=O)C(Cc1ccccc1)NC(=O)c1cnccn1)B(O)O (stereo not drawn) + Cc1cncc(-c2nc(NCCc3c[nH]c4ccccc34)c3ncn(C(C)C)c3n2)c1", "label-value": "class 1"}
{"compound": "CC(C)CC(NC(=O)C(Cc1ccccc1)NC(=O)c1cnccn1)B(O)O (stereo not drawn) + CC(CO)NC(=O)c1cc(-c2ccc(Cl)cc2)nn(-c2cnn(C)c2)c1=O", "label-value": "class 1"}
{"compound": "Nc1ncn(C2CC(O)C(CO)S2)c(=O)n1 (stereo not drawn) + Cc1cncc(-c2nc(NCCc3c[nH]c4ccccc34)c3ncn(C(C)C)c3n2)c1", "label-value": "class 0"}

* * *

system: 699152-130-R-J1-PDC complex spheroid growth; assay: Anticancer human tumor 699152-130-R-J1-PDC cell line growth inhibition [AhR]; conditions: second compound 1 µM; first compound 0.0316 µM; stronger effect = lower value;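 also: compound exposure lasted 7 days after spheroids had grown for 3 days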
Entries and their viability, T/C

{"compound": "COc1cc(Nc2ncc3c(n2)-c2ccc(Cl)cc2C(c2c(F)cccc2OC)=NC3)ccc1C(=O)O + CC(CO)NC(=O)c1cc(-c2ccc(Cl)cc2)nn(-c2cnn(C)c2)c1=O", "value-units": "%", "viability, T/C": 95}
{"compound": "Nc1ncn(C2CC(O)C(CO)O2)c(=O)n1 (stereo not drawn) + Cc1ccccc1N=Nc1ccc(NC(=O)c2ccnn2C)c(C)c1", "value-units": "%", "viability, T/C": 87.9}
{"compound": "O=C(c1cc(Cc2n[nH]c(=O)c3ccccc23)ccc1F)N1CCN(C(=O)C2CC2)CC1 + CC(CO)NC(=O)c1cc(-c2ccc(Cl)cc2)nn(-c2cnn(C)c2)c1=O", "value-units": "%", "viability, T/C": 87.6}

* * *

system: 699152-130-R-J1-PDC complex spheroid growth; assay: Anticancer human tumor 699152-130-R-J1-PDC cell line growth inhibition [AhR]; conditions: second compound 0.1 µM; first compound 0.3 µM; stronger effect = lower value;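 also: compound exposure lasted 7 days after spheroids had grown for 3 days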
Entries and their viability, T/C

{"molecule": "CCc1c2c(nc3ccc(O)cc13)-c1cc3c(c(=O)n1C2)COC(=O)[C@]3(O)CC + Cc1ccccc1N=Nc1ccc(NC(=O)c2ccnn2C)c(C)c1", "viability, T/C (%)": 34.1}
{"molecule": "CCN(c1cc(-c2ccc(CN3CCOCC3)cc2)cc(C(=O)NCc2c(C)cc(C)[nH]c2=O)c1C)C1CCOCC1 + CC(CO)NC(=O)c1cc(-c2ccc(Cl)cc2)nn(-c2cnn(C)c2)c1=O", "viability, T/C (%)": 96.2}
{"molecule": "CCN(c1cc(-c2ccc(CN3CCOCC3)cc2)cc(C(=O)NCc2c(C)cc(C)[nH]c2=O)c1C)C1CCOCC1 + Cc1ccccc1N=Nc1ccc(NC(=O)c2ccnn2C)c(C)c1", "viability, T/C (%)": 104}
{"molecule": "O=C(C=Cn1cnc(-c2cc(C(F)(F)F)cc(C(F)(F)F)c2)n1)NNc1cnccn1 + Cc1ccccc1N=Nc1ccc(NC(=O)c2ccnn2C)c(C)c1", "viability, T/C (%)": 75.1}
{"molecule": "CC(C)CC(NC(=O)C(Cc1ccccc1)NC(=O)c1cnccn1)B(O)O (stereo not given) + CC(CO)NC(=O)c1cc(-c2ccc(Cl)cc2)nn(-c2cnn(C)c2)c1=O", "viability, T/C (%)": 0.88}

* * *

system: 699152-130-R-J1-PDC complex spheroid growth; test: Anticancer human tumor 699152-130-R-J1-PDC cell line growth inhibition [AhR]; conditions: second compound 0.316 µM; first compound 0.316 µM; stronger effect = lower value;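 also: compound exposure lasted 7 days after spheroids had grown for 3 days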

{"molecule": "CC1COCCN1c1cc(C2(S(C)(=N)=O)CC2)nc(-c2ccnc3[nH]ccc23)n1 (stereo not drawn) + Cc1ccccc1N=Nc1ccc(NC(=O)c2ccnn2C)c(C)c1", "target-entity": "699152-130-R-J1-PDC complex spheroid growth", "value-units": "%", "viability, T/C": 98.4}
{"molecule": "NS(=O)(=O)OCC1CC(n2ccc3c(NC4CCc5ccccc54)ncnc32)CC1O (stereo not drawn) + Cc1ccccc1N=Nc1ccc(NC(=O)c2ccnn2C)c(C)c1", "target-entity": "699152-130-R-J1-PDC complex spheroid growth", "value-units": "%", "viability, T/C": 104}
{"molecule": "COc1cccc2c1C(=O)c1c(O)c3c(c(O)c1C2=O)CC(O)(C(=O)CO)CC3OC1CC(N)C(O)C(C)O1 (stereo not drawn) + Cc1cncc(-c2nc(NCCc3c[nH]c4ccccc34)c3ncn(C(C)C)c3n2)c1", "target-entity": "699152-130-R-J1-PDC complex spheroid growth", "value-units": "%", "viability, T/C": 51.6}

* * *

System: 699152-130-R-J1-PDC complex spheroid growth
Test: Anticancer human tumor 699152-130-R-J1-PDC cell line growth inhibition [AhR];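 also: compound exposure lasted 7 days after spheroids had grown for 3 days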
Conditions: second compound 0.1 µM; first compound 0.000949 µM; stronger effect = lower value
Description: Multicellular complex tumor spheroid response to aryl hydrocarbon receptor antagonists in combination with a variety of drugs and investigational agents in selected tumor cell lines […] Compounds. […] If the clinical Cmax for an agent had not been determined, the highest concentration tested was 10 microM (Table 1). […]

{"compound": "CCc1c2c(nc3ccc(O)cc13)-c1cc3c(c(=O)n1C2)COC(=O)[C@]3(O)CC + CC(CO)NC(=O)c1cc(-c2ccc(Cl)cc2)nn(-c2cnn(C)c2)c1=O", "value-units": "%", "viability, T/C": 89}
{"compound": "Nc1ncn(C2CC(O)C(CO)S2)c(=O)n1 (centres undefined) + CC(CO)NC(=O)c1cc(-c2ccc(Cl)cc2)nn(-c2cnn(C)c2)c1=O", "value-units": "%", "viability, T/C": 98}
{"compound": "Nc1ncn(C2CC(O)C(CO)S2)c(=O)n1 (centres undefined) + Cc1ccccc1N=Nc1ccc(NC(=O)c2ccnn2C)c(C)c1", "value-units": "%", "viability, T/C": 99.6}
{"compound": "CC(C)CC(NC(=O)C(Cc1ccccc1)NC(=O)c1cnccn1)B(O)O (centres undefined) + Cc1cncc(-c2nc(NCCc3c[nH]c4ccccc34)c3ncn(C(C)C)c3n2)c1", "value-units": "%", "viability, T/C": 107}
{"compound": "CC(C)CC(NC(=O)C(Cc1ccccc1)NC(=O)c1cnccn1)B(O)O (centres undefined) + CC(CO)NC(=O)c1cc(-c2ccc(Cl)cc2)nn(-c2cnn(C)c2)c1=O", "value-units": "%", "viability, T/C": 91.3}
{"compound": "CCc1c2c(nc3ccc(O)cc13)-c1cc3c(c(=O)n1C2)COC(=O)[C@]3(O)CC + Cc1cncc(-c2nc(NCCc3c[nH]c4ccccc34)c3ncn(C(C)C)c3n2)c1", "value-units": "%", "viability, T/C": 96.7}
{"compound": "CC(C)CC(NC(=O)C(Cc1ccccc1)NC(=O)c1cnccn1)B(O)O (centres undefined) + Cc1ccccc1N=Nc1ccc(NC(=O)c2ccnn2C)c(C)c1", "value-units": "%", "viability, T/C": 86}
{"compound": "Nc1ncn(C2CC(O)C(CO)S2)c(=O)n1 (centres undefined) + Cc1cncc(-c2nc(NCCc3c[nH]c4ccccc34)c3ncn(C(C)C)c3n2)c1", "value-units": "%", "viability, T/C": 105}
{"compound": "CCc1c2c(nc3ccc(O)cc13)-c1cc3c(c(=O)n1C2)COC(=O)[C@]3(O)CC + Cc1ccccc1N=Nc1ccc(NC(=O)c2ccnn2C)c(C)c1", "value-units": "%", "viability, T/C": 87.4}

Hello, the source for this data is PubChem BioAssay AID1919001, in case you need it.
